Tested on: Mammalian orthoreovirus 1
Assay: Antiviral activity against Reovirus-1 infected in african green monkey Vero cells assessed as protection against virus-induced cytopathogenicity after 2 days
Assay type: functional, organism-based
Conditions: Mammalian orthoreovirus 1, Vero, 48 h
Field: EC50. Provide a value for each of the molecules that follow.

Use the examples below as a reference point.
NC(=O)c1ncn([C@@H]2O[C@H](CO)[C@@H](O)[C@H]2O)n1 : > 250 µg/mL
C/C(=N\n1c(-c2ccccc2)nc2ccccc2c1=O)c1ccc(O)cc1 : > 100 µg/mL
CN(C)c1ccc(/C=N/n2c(-c3ccccc3)nc3ccccc3c2=O)cc1 : > 20 µg/mL
O=c1c2ccccc2nc(-c2ccccc2)n1/N=C/c1ccc(O)cc1 : > 20 µg/mL
O=c1c2ccccc2nc(-c2ccccc2)n1/N=C/c1ccccc1O : 10 µg/mL
O=c1c2ccccc2nc(-c2ccccc2)n1/N=C/c1ccc(Cl)cc1 : > 4 µg/mL
O=c1c2ccccc2nc(-c2ccccc2)n1/N=C/c1cccc([N+](=O)[O-])c1 : > 4 µg/mL
C/C(=N\n1c(-c2ccccc2)nc2ccccc2c1=O)c1ccc(Cl)cc1 : > 20 µg/mL
COc1ccc(/C=N/n2c(-c3ccccc3)nc3ccccc3c2=O)cc1 : > 20 µg/mL
C/C(=N\n1c(-c2ccccc2)nc2ccccc2c1=O)c1ccccc1 : > 20 µg/mL

Required: EC50, one value per molecule below.
1. COc1ccccc1/C=N/n1c(-c2ccccc2)nc2ccccc2c1=O
2. Nc1ncnc2c1ncn2C[C@H](O)CO [(S)-DHPA]
3. COc1ccc(/C=N/n2c(-c3ccccc3)nc3ccccc3c2=O)cc1O
4. O=c1c2ccccc2nc(-c2ccccc2)n1/N=C/c1ccccc1

Result:
1: > 20 µg/mL; 2: > 250 µg/mL; 3: > 20 µg/mL; 4: > 4 µg/mL

----------
Can you tell me MCC at 48 h for the items I'm about to list?
Assay: Cytotoxicity against MDCK cells assessed as minimum concentration required to cause microscopically detectable alteration after 2 days
Assay type: cell-based, Canis lupus familiaris
Settings: dog, read-out: Activity
One number for each entry, in µg/mL.

O=c1c2ccccc2nc(-c2ccccc2)n1/N=C/c1cccc([N+](=O)[O-])c1 : 20
C/C(=N\n1c(-c2ccccc2)nc2ccccc2c1=O)c1ccccc1 : 100

For each of the molecules below, note its MCC at 48 h.
1. COc1ccc(/C=N/n2c(-c3ccccc3)nc3ccccc3c2=O)cc1O
2. COc1ccc(/C=N/n2c(-c3ccccc3)nc3ccccc3c2=O)cc1
3. O=c1c2ccccc2nc(-c2ccccc2)n1/N=C/c1ccccc1

Result:
[20, 20, 20]

----------
Experiment: Selectivity index, ratio of minimum concentration required to cause microscopically detectable alteration in green monkey Vero cells to EC50 for Sindbis virus
Type: toxicity, cell-based
Conditions: read-out: Selectivity Index
quantity_name: selectivity ratio

Q: Return reported selectivity ratio; argument: O=c1c2ccccc2nc(-c2ccccc2)n1/N=C/c1ccccc1O
Result: 20

----------
Assay: Cytotoxicity against cat CRFK cells by MTS assay
Format: cell-based, Felis catus
Settings: crfk
quantity_name: CC50

Worked set:
O=c1c2ccccc2nc(-c2ccccc2)n1/N=C/c1cccc([N+](=O)[O-])c1 : 13.8 µg/mL
O=c1c2ccccc2nc(-c2ccccc2)n1/N=C/c1ccc(O)cc1 : 59.5 µg/mL
O=c1c2ccccc2nc(-c2ccccc2)n1/N=C/c1ccc(Cl)cc1 : 42.2 µg/mL
COc1ccc(/C=N/n2c(-c3ccccc3)nc3ccccc3c2=O)cc1 : 13.7 µg/mL
O=c1c2ccccc2nc(-c2ccccc2)n1/N=C/c1ccccc1O : 11.2 µg/mL
C/C(=N\n1c(-c2ccccc2)nc2ccccc2c1=O)c1ccccc1 : 2.6 µg/mL
O=c1c2ccccc2nc(-c2ccccc2)n1/N=C/c1ccccc1 : 3.7 µg/mL
COc1ccc(/C=N/n2c(-c3ccccc3)nc3ccccc3c2=O)cc1O : 42.7 µg/mL

Below are some compounds; for each one, tell me its CC50.
1. COc1ccccc1/C=N/n1c(-c2ccccc2)nc2ccccc2c1=O
2. C/C(=N\n1c(-c2ccccc2)nc2ccccc2c1=O)c1ccc(O)cc1

Result:
14.4 µg/mL
> 100 µg/mL
